Tested on: phosphorylation of Serine 473 in Akt in MDA-MB-468 cells
Assay: In Vitro phospho-Ser473 Akt Assay (Acumen Explorer)
Assay type: cell-based
Conditions: Homo sapiens; MDA-MB-468 cells, compounds of Formula I(B), upper bounds; read-out: IC50 values against mTOR (phospho-Ser473 Akt assay)
pIC50: −log10 of the molar value.
MEASURED_PROPERTY: pIC50

In: Give the measured pIC50 of C[C@H]1COCCN1c1nc(N2CCOC[C@@H]2C)c2ccc(-c3cccc(Cl)n3)nc2n1 [Example 11v] .
Out: > 4.96

====

Molecular target: mTOR (Homo sapiens)
Construct: mTOR protein was isolated from HeLa cell cytoplasmic extract by immunoprecipitation; endogenous in cells; host or cells: HeLa cell cytoplasmic extract (immunoprecipitate)
Assay: Biological Assay: mTOR enzyme activity, mTOR immunoprecipitated from HeLa cell cytoplasmic extract, recombinant PHAS-1 as substrate
Type: biochemical
Conditions: Biological Assay, upper bounds; read-out: IC50 values against mTOR
Assignment: determine reported IC50 for the given compounds.

In: Query (compound): CC(=O)Nc1ccc2c(N3CCOCC3)nc(N3C[C@@H](C)O[C@@H](C)C3)nc2n1 ; field requested: IC50
Out: < 10 µM

In: Could you tell me which IC50 is on file for C[C@@H]1CN(c2nc(N3CCOCC3)c3ccc(Nc4oc(-c5ccccc5)cc4C#N)nc3n2)C[C@H](C)O1 ?
Out: < 1 µM

In: Which IC50 is listed for C[C@@H]1CN(c2nc(N3CCOCC3)c3ccc(Nc4cccnc4)nc3n2)C[C@H](C)O1 ?
Out: < 1 µM

In: Need IC50, item C[C@H]1CCCCN1c1nc(N2CCOCC2)c2ccc(Nc3ccccc3)nc2n1
Out: < 1 µM

====

Hi there, I'd appreciate the recorded pIC50 for every entry that follows.
Biological target: mTOR (Homo sapiens, UniProt P42345)
Construct: mTOR protein was isolated from HeLa cell cytoplasmic extract by immunoprecipitation; endogenous in cells; host or cells: HeLa cell cytoplasmic extract (immunoprecipitate)
Test: Biological Assay: mTOR enzyme activity, mTOR immunoprecipitated from HeLa cell cytoplasmic extract, recombinant PHAS-1 as substrate
Assay type: biochemical
Conditions: Biological Assay, upper bounds; read-out: IC50 values against mTOR
pIC50: −log10 of the molar value.

In: What pIC50 value was documented for this compound, Cc1cscc1-c1ccc2c(N3CCOCC3)nc(N3C[C@@H](C)O[C@@H](C)C3)nc2n1 [Example 1v] ?
Out: > 6.00

In: Item under review: C[C@@H]1CN(c2nc(N3CCOCC3)c3ccc(-c4ccc5[nH]ccc5c4)nc3n2)C[C@H](C)O1 [Example 1x] . Reported pIC50?
Out: > 6.00

In: Value lookup for pIC50; key = C[C@@H]1CN(c2nc(N3CCOCC3)c3ccc(Nc4ccsc4)nc3n2)C[C@H](C)O1 [Example 2aq]
Out: > 6.00

In: pIC50 for C[C@@H]1CN(c2nc(N3CCOCC3)c3ccc(Nc4ccccc4)nc3n2)C[C@H](C)O1 [Example 2a] ?
Out: > 6.00

In: Fill blank: measured pIC50 of the compound COc1ccc(-c2ccc3c(N4CCOCC4)nc(N4C[C@@H](C)O[C@@H](C)C4)nc3n2)cc1CNCCc1cnc[nH]1 [Example 8c] is ____.
Out: > 7.00

In: Bench note: what pIC50 did COc1ccc(-c2ccc3c(N4CCOCC4)nc(N4C[C@@H](C)O[C@@H](C)C4)nc3n2)cc1CNCc1ccc(F)cc1 [Example 8ah] show?
Out: > 7.00

In: Find the recorded pIC50 belonging to COc1ccc(-c2ccc3c(N4CCOCC4)nc(N4C[C@@H](C)O[C@@H](C)C4)nc3n2)cc1CNCCC1CCCN1C (stereo partly drawn) [Example 8ai] and report it.
Out: > 7.00

In: Return reported pIC50; argument: COc1ccc(-c2ccc3c(N4CCOCC4)nc(N4C[C@@H](C)O[C@@H](C)C4)nc3n2)cc1OC [Example 1ah]
Out: > 6.00

In: I would be grateful if you could share the reported pIC50 for COc1ccc(-c2ccc3c(N4CCOCC4)nc(N4C[C@@H](C)O[C@@H](C)C4)nc3n2)cc1CNC1CCCCC1C (stereo partly drawn) [Example 8w] .
Out: > 6.00

In: Fill blank: measured pIC50 of the compound C[C@@H]1CN(c2nc(N3CCOCC3)c3ccc(Nn4cnnc4)nc3n2)C[C@H](C)O1 [Example 2r] is ____.
Out: > 5.00

In: So what does the record say about pIC50 for COCCNCc1cc(-c2ccc3c(N4CCOCC4)nc(N4C[C@@H](C)O[C@@H](C)C4)nc3n2)ccc1OC [Example 8v] ?
Out: > 6.00

In: I'd like to know its pIC50. The compound in question is CC(=O)c1ccc(-c2ccc3c(N4CCOCC4)nc(N4C[C@@H](C)O[C@@H](C)C4)nc3n2)cc1 [Example 1aq]
Out: > 6.00

In: Any idea what its pIC50 is? The compound is COc1ccc(-c2ccc3c(N4CCOCC4)nc(N4C[C@@H](C)O[C@@H](C)C4)nc3n2)cc1CNCc1cccc(CN)c1 [Example 8ap]
Out: > 7.00

In: Any idea what pIC50 was measured for C[C@@H]1CN(c2nc(N3CCOCC3)c3ccc(NC(=O)C4CCCC4)nc3n2)C[C@H](C)O1 [Example 5b] ?
Out: > 5.00

In: Entry COc1ccc(-c2ccc3c(N4CCOCC4)nc(N4C[C@@H](C)O[C@@H](C)C4)nc3n2)cc1CNC(c1ccccc1)c1ccccc1 [Example 8az] : reported pIC50 = ?
Out: > 6.00

In: Tell me the measured pIC50 of COc1ccc(-c2ccc3c(N4CCOCC4)nc(N4C[C@@H](C)O[C@@H](C)C4)nc3n2)cc1CNC1CCCCCCC1 [Example 8n] , please.
Out: > 7.00

In: Would you kindly share the measured pIC50 for C[C@@H]1CN(c2nc(N3CCOCC3)c3ccc(-c4ccc5c(c4)OCCCO5)nc3n2)C[C@H](C)O1 [Example 1ba] ?
Out: > 5.00

In: Which pIC50 is listed for COc1ccc(-c2ccc3c(N4CCOCC4)nc(N4C[C@@H](C)O[C@@H](C)C4)nc3n2)cc1CNC1CC1 [Example 8b] ?
Out: > 7.00

In: Suppose we examine the compound C[C@@H]1CN(c2nc(N3CCOCC3)c3ccc(N)nc3n2)C[C@H](C)O1 [Example 3a] ; what pIC50 value has been reported?
Out: > 6.00

In: Param item = COc1ccc(-c2ccc3c(N4CCOCC4)nc(N4C[C@@H](C)O[C@@H](C)C4)nc3n2)cc1CNCC1CCCO1 (stereo partly drawn) [Example 8aj] ; retrieve measured pIC50.
Out: > 7.00

In: Looking for the measured pIC50 of COc1ccc(-c2ccc3c(N4CCOCC4)nc(N4C[C@@H](C)O[C@@H](C)C4)nc3n2)cc1CNCC(O)c1cccc(O)c1 (stereo partly drawn) [Example 8bb] , can you help?
Out: > 7.00

Data provenance is patent US20080194546A1.
